- tested-system: CCK-2R (Rattus norvegicus)
- Construct: The CCK-2R expressing rat pancreatic tumor cells AR4-2J; host or cells: AR4-2J rat pancreatic tumor cells
- Sequence (P30553 1-452): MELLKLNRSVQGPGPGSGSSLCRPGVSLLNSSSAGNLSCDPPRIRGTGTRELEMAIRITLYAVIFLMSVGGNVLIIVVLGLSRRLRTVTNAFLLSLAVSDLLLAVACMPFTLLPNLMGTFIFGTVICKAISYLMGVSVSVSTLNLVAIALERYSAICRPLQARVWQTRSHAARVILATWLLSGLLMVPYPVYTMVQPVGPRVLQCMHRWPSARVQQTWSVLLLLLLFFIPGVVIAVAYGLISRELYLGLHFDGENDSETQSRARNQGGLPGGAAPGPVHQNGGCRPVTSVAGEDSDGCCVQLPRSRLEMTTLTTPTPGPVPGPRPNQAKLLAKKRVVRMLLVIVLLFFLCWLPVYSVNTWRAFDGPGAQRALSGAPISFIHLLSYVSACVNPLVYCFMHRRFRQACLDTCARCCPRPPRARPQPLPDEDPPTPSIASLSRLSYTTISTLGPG
- assay-explanation: Determination of IC50: CCK-2R affinity on AR4-2J cells, competition with [^177Lu]Lu-DOTA-PP-F11N
- Type: binding
- condition-description: AR4-2J cells; ^natLu-labeled; read-out: IC50 [nM] (n = 3), ^natLu-labeled
Starred links: 1 amine or outer side, 2 acyl side, 3 side chain; linkers in the order of their positions; H or OH if unused. Non-standard residues stand in square brackets, D forms with d. Residues, ends and D or L forms follow the SMILES beside them. *: point of attachment. DOTA = O=C(O)CN1CCN(CC(=O)O)CCN(CC(=O)*)CCN(CC(=O)O)CC1; d(γGlu) = O=C(O)[C@@H](CCC(=O)[*:2])N[*:1]; 1Nal = N[C@@H](Cc1cccc2ccccc12)C(=O)O; PEG5 = NCCOCCOCCOCCOCCOCCC(=O)O; NMeNle = CCCC[C@H](NC)C(=O)O; PEG3 = NCCOCCOCCOCCC(=O)O
Mark each entry yes (1) if its IC50 sits below 7 nM, and no (0) for all others.

Would you kindly verify if IC50 of CCCC[C@@H](C(=O)N[C@@H](CC(=O)O)C(=O)N[C@@H](Cc1cccc2ccccc12)C(N)=O)N(C)C(=O)[C@H](Cc1c[nH]c2ccccc12)NC(=O)CCOCCOCCOCCOCCOCCNC(=O)CC[C@@H](NC(=O)CN1CCN(CC(=O)O)CCN(CC(=O)O)CCN(CC(=O)O)CC1)C(=O)O [DOTA-CCK-78] ({DOTA-d(γGlu)-PEG5}-W[NMeNle]D[1Nal]-NH2) is strictly less than 7 nM? yes (1)

Would you kindly verify if IC50 of CCCC[C@@H](C(=O)N[C@@H](CC(=O)O)C(=O)N[C@@H](Cc1cccc2ccccc12)C(N)=O)N(C)C(=O)[C@H](Cc1c[nH]c2ccccc12)NC(=O)CNC(=O)CNC(=O)[C@H](C)NC(=O)CC[C@@H](NC(=O)CN1CCN(CC(=O)O)CCN(CC(=O)O)CCN(CC(=O)O)CC1)C(=O)O [DOTA-CCK-60] ({DOTA-d(γGlu)}-AGGW[NMeNle]D[1Nal]-NH2) is strictly less than 7 nM? no (0)

Would you kindly verify if IC50 of `CCCC[C@@H](C(=O)N[C@@H](CC(=O)O)C(=O)N[C@@H](Cc1cccc2ccccc12)C(N)=O)N(C)C(=O)[C@H](Cc1c[nH]c2ccccc12)NC(=O)CCOCCOCCOCCOCCNC(=O)CC[C@@H](NC(=O)CCOCCOCCOCCOCCOCCOCCOCCOCCNC(=O)CC[C@@H](NC(=O)[C@@H](CNC(=O)c1ccc([Si](F)(C(C)(C)C)C(C)(C)C)cc1)NC(=O)CN1CCN(CC(=O)O)CCN(CC(=O)O)CCN(CC(=O)O)CC1)C(=O)O)C(=O)O` is strictly less than 7 nM? no (0)

Would you kindly verify if IC50 of CCCC[C@@H](C(=O)N[C@@H](CC(=O)O)C(=O)N[C@@H](Cc1cccc2ccccc12)C(N)=O)N(C)C(=O)[C@H](Cc1c[nH]c2ccccc12)NC(=O)CCOCCOCCOCCNC(=O)CC[C@@H](NC(=O)CN1CCN(CC(=O)O)CCN(CC(=O)O)CCN(CC(=O)O)CC1)C(=O)O [DOTA-CCK-63] ({DOTA-d(γGlu)-PEG3}-W[NMeNle]D[1Nal]-NH2) is strictly less than 7 nM? yes (1)

Would you kindly verify if IC50 of `CCCC[C@@H](C(=O)N[C@@H](CC(=O)O)C(=O)N[C@@H](Cc1cccc2ccccc12)C(N)=O)N(C)C(=O)[C@H](Cc1c[nH]c2ccccc12)NC(=O)CCOCCOCCOCCOCCNC(=O)CC[C@@H](NC(=O)CCOCCOCCOCCOCCOCCOCCOCCOCCNC(=O)CC[C@@H](NC(=O)[C@@H](CNC(=O)C[N+](C)(C)Cc1ccc([Si](F)(C(C)(C)C)C(C)(C)C)cc1)NC(=O)CN1CCN(CC(=O)O)CCN(CC(=O)O)CCN(CC(=O)O)CC1)C(=O)O)C(=O)O` is strictly less than 7 nM? no (0)

Would you kindly verify if IC50 of CCCC[C@@H](C(=O)N[C@@H](CC(=O)O)C(=O)N[C@@H](Cc1cccc2ccccc12)C(N)=O)N(C)C(=O)[C@H](Cc1c[nH]c2ccccc12)NC(=O)CNC(=O)[C@H](Cc1ccc(O)cc1)NC(=O)CNC(=O)CNC(=O)CN1CCN(CC(=O)O)CCN(CC(=O)O)CCN(CC(=O)O)CC1 [DOTA-CCK-56] ({DOTA}-GGYGW[NMeNle]D[1Nal]-NH2) is strictly less than 7 nM? yes (1)

====

- tested-system: Human serum albumin (HSA) (Homo sapiens)
- Construct: purchased Daicel, Tokyo, Japan H13H-2433
- Sequence (P02768 25-609): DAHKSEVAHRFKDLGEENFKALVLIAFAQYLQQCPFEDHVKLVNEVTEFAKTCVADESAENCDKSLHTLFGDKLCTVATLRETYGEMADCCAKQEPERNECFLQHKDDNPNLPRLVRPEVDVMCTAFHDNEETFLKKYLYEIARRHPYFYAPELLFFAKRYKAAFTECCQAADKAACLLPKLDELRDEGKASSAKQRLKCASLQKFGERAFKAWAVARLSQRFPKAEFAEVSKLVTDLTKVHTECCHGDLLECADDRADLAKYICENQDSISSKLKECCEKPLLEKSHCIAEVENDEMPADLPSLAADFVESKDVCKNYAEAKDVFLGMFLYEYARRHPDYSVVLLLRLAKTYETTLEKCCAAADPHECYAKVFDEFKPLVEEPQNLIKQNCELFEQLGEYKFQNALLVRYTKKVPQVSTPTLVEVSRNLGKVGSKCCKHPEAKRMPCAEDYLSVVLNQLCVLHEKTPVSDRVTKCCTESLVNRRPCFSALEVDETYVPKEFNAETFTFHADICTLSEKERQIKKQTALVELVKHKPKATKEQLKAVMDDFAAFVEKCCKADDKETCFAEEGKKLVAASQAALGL
- assay-explanation: Determination of HSA binding on a Chiralpak HSA column
- Type: in vitro ADME
- condition-description: Tab. 8; metal not stated (Fig. 18: ^natLu)
property-label: HSA binding [%] (%)
Numeric only. Scale: %

Reported HSA binding [%] of `CCCC[C@@H](C(=O)N[C@@H](CC(=O)O)C(=O)N[C@@H](Cc1cccc2ccccc12)C(N)=O)N(C)C(=O)[C@H](Cc1c[nH]c2ccccc12)NC(=O)CCOCCOCCOCCOCCNC(=O)CC[C@@H](NC(=O)CCOCCOCCOCCOCCOCCOCCOCCOCCOCCOCCOCCOCCNC(=O)CC[C@@H](NC(=O)[C@@H](CNC(=O)c1cc(C(=O)O)cc([Si](F)(C(C)(C)C)C(C)(C)C)c1)NC(=O)CN1CCN(CC(=O)O)CCN(CC(=O)O)CCN(CC(=O)O)CC1)C(=O)O)C(=O)O` : 84.7

====

- assay-explanation: n-Octanol-PBS distribution coefficient (logD7.4)
- Type: physicochemical
- condition-description: pH = 7.4, ^177Lu-labeled
Starred links: 1 amine or outer side, 2 acyl side, 3 side chain; linkers in the order of their positions; H or OH if unused. Non-standard residues stand in square brackets, D forms with d. Residues, ends and D or L forms follow the SMILES beside them. *: point of attachment. X1 = CC(C)(C)[Si](F)(c1ccc(C[N+](C)(C)CC(=O)*)cc1)C(C)(C)C; DOTA = O=C(O)CN1CCN(CC(=O)O)CCN(CC(=O)*)CCN(CC(=O)O)CC1; d(γGlu) = O=C(O)[C@@H](CCC(=O)[*:2])N[*:1]; 1Nal = N[C@@H](Cc1cccc2ccccc12)C(=O)O; PEG5 = NCCOCCOCCOCCOCCOCCC(=O)O; NMeNle = CCCC[C@H](NC)C(=O)O; PEG4 = NCCOCCOCCOCCOCCC(=O)O; PEG3 = NCCOCCOCCOCCC(=O)O; dDap = NC[C@@H](N)C(=O)O
property-label: logD7.4 (n ≥ 5), ^177Lu-labeled
Response field accepts a number only; no unit should be typed.

Reported logD7.4 (n ≥ 5), ^177Lu-labeled of `CCCC[C@@H](C(=O)N[C@@H](CC(=O)O)C(=O)N[C@@H](Cc1cccc2ccccc12)C(N)=O)N(C)C(=O)[C@H](Cc1c[nH]c2ccccc12)NC(=O)CCOCCOCCOCCOCCNC(=O)CC[C@@H](NC(=O)CCOCCOCCOCCOCCOCCOCCOCCOCCNC(=O)CC[C@@H](NC(=O)[C@@H](CNC(=O)C[N+](C)(C)Cc1ccc([Si](F)(C(C)(C)C)C(C)(C)C)cc1)NC(=O)CN1CCN(CC(=O)O)CCN(CC(=O)O)CCN(CC(=O)O)CC1)C(=O)O)C(=O)O` : −1.63

Reported logD7.4 (n ≥ 5), ^177Lu-labeled of CCCC[C@@H](C(=O)N[C@@H](CC(=O)O)C(=O)N[C@@H](Cc1cccc2ccccc12)C(N)=O)N(C)C(=O)[C@H](Cc1c[nH]c2ccccc12)NC(=O)CNC(=O)CNC(=O)CNC(=O)CC[C@@H](NC(=O)CN1CCN(CC(=O)O)CCN(CC(=O)O)CCN(CC(=O)O)CC1)C(=O)O [DOTA-CCK-62] ({DOTA-d(γGlu)}-GGGW[NMeNle]D[1Nal]-NH2) : −2.66

Reported logD7.4 (n ≥ 5), ^177Lu-labeled of CCCC[C@@H](C(=O)N[C@@H](CC(=O)O)C(=O)N[C@@H](Cc1cccc2ccccc12)C(N)=O)N(C)C(=O)[C@H](Cc1c[nH]c2ccccc12)NC(=O)CCOCCOCCOCCOCCNC(=O)CC[C@@H](NC(=O)CCOCCOCCOCCOCCOCCNC(=O)[C@@H](CNC(=O)C[N+](C)(C)Cc1ccc([Si](F)(C(C)(C)C)C(C)(C)C)cc1)NC(=O)CN1CCN(CC(=O)O)CCN(CC(=O)O)CCN(CC(=O)O)CC1)C(=O)O [DOTA-rhCCK-90] ({DOTA}-[dDap](X1)[PEG5][d(γGlu)][PEG4]W[NMeNle]D[1Nal]-NH2) : −0.76

Reported logD7.4 (n ≥ 5), ^177Lu-labeled of CCCC[C@@H](C(=O)N[C@@H](CC(=O)O)C(=O)N[C@@H](Cc1cccc2ccccc12)C(N)=O)N(C)C(=O)[C@H](Cc1c[nH]c2ccccc12)NC(=O)CNC(=O)[C@H](Cc1ccc(O)cc1)NC(=O)CNC(=O)CC[C@@H](NC(=O)CN1CCN(CC(=O)O)CCN(CC(=O)O)CCN(CC(=O)O)CC1)C(=O)O [DOTA-CCK-59] ({DOTA-d(γGlu)}-GYGW[NMeNle]D[1Nal]-NH2) : −2.63

Reported logD7.4 (n ≥ 5), ^177Lu-labeled of CCCC[C@@H](C(=O)N[C@@H](CC(=O)O)C(=O)N[C@@H](Cc1cccc2ccccc12)C(N)=O)N(C)C(=O)[C@H](Cc1c[nH]c2ccccc12)NC(=O)CCOCCOCCOCCNC(=O)CC[C@@H](NC(=O)CN1CCN(CC(=O)O)CCN(CC(=O)O)CCN(CC(=O)O)CC1)C(=O)O [DOTA-CCK-63] ({DOTA-d(γGlu)-PEG3}-W[NMeNle]D[1Nal]-NH2) : −3.03

Reported logD7.4 (n ≥ 5), ^177Lu-labeled of CCCC[C@@H](C(=O)N[C@@H](CC(=O)O)C(=O)N[C@@H](Cc1cccc2ccccc12)C(N)=O)N(C)C(=O)[C@H](Cc1c[nH]c2ccccc12)NC(=O)CCOCCOCCOCCOCCNC(=O)CC[C@@H](NC(=O)CN1CCN(CC(=O)O)CCN(CC(=O)O)CCN(CC(=O)O)CC1)C(=O)O [DOTA-CCK-66] ({DOTA-d(γGlu)-PEG4}-W[NMeNle]D[1Nal]-NH2) : −2.60

Reported logD7.4 (n ≥ 5), ^177Lu-labeled of `CCCC[C@@H](C(=O)N[C@@H](CC(=O)O)C(=O)N[C@@H](Cc1cccc2ccccc12)C(N)=O)N(C)C(=O)[C@H](Cc1c[nH]c2ccccc12)NC(=O)CCOCCOCCOCCOCCNC(=O)CC[C@@H](NC(=O)CCOCCOCCOCCOCCOCCOCCOCCOCCOCCOCCOCCOCCNC(=O)CC[C@@H](NC(=O)[C@@H](CNC(=O)c1cc(C(=O)O)cc([Si](F)(C(C)(C)C)C(C)(C)C)c1)NC(=O)CN1CCN(CC(=O)O)CCN(CC(=O)O)CCN(CC(=O)O)CC1)C(=O)O)C(=O)O` : −2.11

Reported logD7.4 (n ≥ 5), ^177Lu-labeled of `CCCC[C@@H](C(=O)N[C@@H](CC(=O)O)C(=O)N[C@@H](Cc1cccc2ccccc12)C(N)=O)N(C)C(=O)[C@H](Cc1c[nH]c2ccccc12)NC(=O)CCOCCOCCOCCOCCNC(=O)CC[C@@H](NC(=O)CCOCCOCCOCCOCCOCCOCCOCCOCCOCCOCCOCCOCCNC(=O)CC[C@@H](NC(=O)[C@@H](CNC(=O)C[N+](C)(C)Cc1ccc([Si](F)(C(C)(C)C)C(C)(C)C)cc1)NC(=O)CN1CCN(CC(=O)O)CCN(CC(=O)O)CCN(CC(=O)O)CC1)C(=O)O)C(=O)O` : −1.15

Reported logD7.4 (n ≥ 5), ^177Lu-labeled of `CCCC[C@@H](C(=O)N[C@@H](CC(=O)O)C(=O)N[C@@H](Cc1cccc2ccccc12)C(N)=O)N(C)C(=O)[C@H](Cc1c[nH]c2ccccc12)NC(=O)CCOCCOCCOCCOCCNC(=O)CC[C@@H](NC(=O)CCOCCOCCOCCOCCOCCOCCOCCOCCNC(=O)CC[C@@H](NC(=O)[C@@H](CNC(=O)c1ccc([Si](F)(C(C)(C)C)C(C)(C)C)cc1)NC(=O)CN1CCN(CC(=O)O)CCN(CC(=O)O)CCN(CC(=O)O)CC1)C(=O)O)C(=O)O` : −1.67

Reported logD7.4 (n ≥ 5), ^177Lu-labeled of CCCC[C@@H](C(=O)N[C@@H](CC(=O)O)C(=O)N[C@@H](Cc1cccc2ccccc12)C(N)=O)N(C)C(=O)[C@H](Cc1c[nH]c2ccccc12)NC(=O)CNC(=O)CNC(=O)[C@H](C)NC(=O)CC[C@@H](NC(=O)CN1CCN(CC(=O)O)CCN(CC(=O)O)CCN(CC(=O)O)CC1)C(=O)O [DOTA-CCK-60] ({DOTA-d(γGlu)}-AGGW[NMeNle]D[1Nal]-NH2) : −2.56
